Experimental system: human δ opioid receptor (Homo sapiens, UniProt P41143)
Sequence (P41143 whole entry): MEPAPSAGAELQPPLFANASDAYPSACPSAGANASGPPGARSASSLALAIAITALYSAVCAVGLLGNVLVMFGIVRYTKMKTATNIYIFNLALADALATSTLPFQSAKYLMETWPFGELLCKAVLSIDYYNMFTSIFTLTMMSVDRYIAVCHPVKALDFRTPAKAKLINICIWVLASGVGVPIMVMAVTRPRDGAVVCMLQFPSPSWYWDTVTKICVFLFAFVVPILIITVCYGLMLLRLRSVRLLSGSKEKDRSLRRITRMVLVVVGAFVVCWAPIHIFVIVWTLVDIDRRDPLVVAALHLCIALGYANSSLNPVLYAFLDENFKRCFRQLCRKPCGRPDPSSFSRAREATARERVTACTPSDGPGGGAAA
Protocol summary: Opioid receptor binding assay, [3H]naltrindole (δ)
Measured property: Ki (nM)
Answers are plain numbers, in nM.

Guide cases for Ki, answers given:
CC1C2Cc3ccc(C(=O)NCCc4ccc(-c5ccc(NC(=O)OC(C)(C)C)cc5)cc4)cc3C1(C)CCN2CC1CC1 (stereo not shown) [SJJ-C-027b] : 3.1
CC1C2Cc3ccc(C(=O)NCCc4ccc(-c5cccc(N(C)C)c5)cc4)cc3C1(C)CCN2CC1CC1 (stereo not shown) [SJJ-B-074c] : 2.5
CC1C2Cc3ccc(C(=O)NCCc4ccc(-c5ccc(N)cc5)cc4)cc3C1(C)CCN2CC1CC1 (stereo not shown) [SJJ-B-112g] : 1.5

Alright, here's another compound for you.
stdin: Find the measured Ki of CC1C2Cc3ccc(C(=O)NCCc4ccc(-c5ccc(CN(C)C)cc5)cc4)cc3C1(C)CCN2CC1CC1 (stereo not shown) [SJJ-C-013b] and report it.
stdout: 3.7
